Biological target: human glucagon-like peptide 1 receptor (human, UniProt P43220 24-463)
Assay: cell-based or functional assay
Where no end group is shown, it is not given here. [ ]: non-standard residue; d: D form. Aib = CC(C)(N)C(=O)O
propertyLabel: hGLP-1R CRE Luc EC50 (pM)
Field format: number, assumed pM, no unit text.

Query block: So what's the measured hGLP-1R CRE Luc EC50 (pM) for this one? H[Aib]HGTFTSDYSILLEKKYA[Aib]EFVQWLLEGGPSSGAPPPS-NH2 (not fully specified (residue 16); printed as H-Aib-HGTFTSDYSILLE-K[(2S)-2-amino-6-[[(2S)-2-amino-6-[[(4S)-4-carboxy-4-(19-carboxynonadecanoylamino)butanoyl]amino]hexanoyl]amino]hexanoyl]-KYA-Aib-EFVQWLLEGGPSSGAPPPS-NH2) [Compound No. 41]
Result block: 4.3
